Test system: NCI-H23 lung
Assay: NCI-60 one-dose screen, 48 h (100 = growth as untreated, 0 = no growth, -100 = all killed)
Settings: 10 µM unless noted
This is part of a sample that, as a whole, favours compounds with a hit. Of some 83,000 tested, about 20% had one in any assay.
Readout label: growth (%)
# output: bare number, implied unit %

Task: Suppose we examine the compound O=C(O)C1[S][Sb]([CH](C(=O)O)[CH](C(=O)O)[Sb]2[S]C(C(=O)O)C(C(=O)O)[S]2)[S]C1C(=O)O (stereo unspecified) ; what growth value has been reported?
Output: 104

Task: // next record Cc1ccc2oc(=O)cc(-c3nc4ccc([N+](=O)[O-])cc4[nH]3)c2c1
Output: 43.9

Task: // next record Fc1ccc(-c2nnc(N3CCOCC3)c3ccccc23)cc1
Output: 111

Task: // next record COc1cc2c(cc1OCCCOc1cc3c(cc1OC)C(=O)N1CCC[C@H]1C=N3)C=CC(C)(C)O2
Output: 107

Task: // next record Oc1c(C(c2ccc(F)cc2)N2CCCCC2)ccc2cncnc12 (stereo unspecified)
Output: 16.1

Task: // next record CC(=O)Nc1nonc1-c1nc2ccccc2n1Cc1ccc(C(C)(C)C)cc1
Output: 86.7

Task: // next record CCOC(=O)c1ccc(NC(=O)NC2=NCCS2)cc1
Output: 18.4

Task: // next record CCCCN(CCCC)CCC(=O)c1ccc(OC)c2ccccc12
Output: 111

Task: // next record COc1cc2cc(C(=O)Nc3ccccc3)c(N)nc2cc1OC
Output: 77.6

Task: // next record COc1ccc(Nc2ncccc2C(=O)NCc2cn(Cc3cc(OC)cc(OC)c3)nn2)cc1
Output: 103

Task: // next record N[C@@H](CO)C(=O)O
Output: 91

Task: // next record Cc1cc(C#Cc2ccccc2)ccc1-n1c(/C=C/c2ccc(F)cc2)nc2ccccc2c1=O
Output: 71.5

Task: // next record CC(C)(C)c1ccc(Cn2c(-c3nonc3N)nc3ccccc32)cc1
Output: 70.7

Task: // next record O=C(/C=C/c1cccc([N+](=O)[O-])c1)c1ccc(Nc2nc(N3CCCCC3)nc(N3CCCCC3)n2)cc1
Output: 98.7

Task: // next record Cc1ccc(O)c(Cc2ccccc2)c1
Output: 101

Task: // next record O=C(Nc1ccc2ncnc(Nc3ccc(F)c(Cl)c3)c2c1)c1cccs1
Output: 81.6

Task: // next record COc1cc(/C=C/C(=O)c2c(C)nc3ccccc3c2C)ccc1OCCCOc1cc2c(cc1OC)C(=O)N1CCC[C@H]1C=N2
Output: -19.5

Task: // next record Cc1ccc(/C=C/C(=N/N=C(N)N)c2ccccc2)cc1
Output: 31.3

Task: // next record CC(=O)OC1Oc2ccccc2-c2oc3nc(=N)n(C)c-3cc21 (stereo unspecified)
Output: 103

Task: // next record O=c1[nH]c2cc(Cl)c(Cl)cc2o1
Output: 108

Task: // next record COc1ccc(/C=C2\N=C(c3cccnc3)N(c3ccccc3)NC2=O)cc1
Output: 95.8

Task: // next record N#Cc1c(N)c(C(=O)c2ccc3c(c2)OCCO3)n2c1CCCC2
Output: 42.7

Task: // next record CN=C1C=C/C(=N/N=c2/ccn(O)cc2C)C=C1C
Output: 90

Task: // next record Nc1cc2nc3ccccc3oc-2cc1=O
Output: -33.2

Task: // next record COc1ccc(/C(=C\c2cc(OC)c(OC)c(OC)c2)C(=O)N2CCCNCC2)cc1
Output: 104

Task: // next record COc1c(-c2cc(-c3ccc(C)o3)[nH]c(=O)n2)c(O)cc2occc12
Output: 68.8

Task: // next record CC(C)[C@H](CN)NC[C@H](C)NS(=O)(=O)c1ccc(C(C)(C)C)cc1
Output: 97

Task: // next record O=C1C2=C(C(=O)c3c(O)ccc(O)c31)N(c1ccc(N3CCOCC3)nc1)Cc1ccccc1O2
Output: -33.8

Task: // next record c1ccc(C(CC2=NCCCN2)c2ccccc2)cc1
Output: 99.6

Task: // next record COc1cc(C)cc2oc3oc(=O)c(-c4csc(-c5cc6ccccc6oc5=O)n4)cc3c(=O)c12
Output: 101

Task: // next record COc1ccc(/C=C/C(=O)c2ccc(NC(=O)CSc3nnc(-c4ccc(OC)cc4)n3-c3ccccc3)cc2)cc1
Output: 99.2

Task: // next record CCOP(=O)(O)OP(=O)(O)OCC
Output: 104

Task: // next record Cc1cc(NC(=O)c2ccc(N)cc2)ccc1N=Nc1ccc2cc(S(=O)(=O)O)cc(S(=O)(=O)O)c2c1
Output: 103

Task: // next record CN(C)c1ccc(C(c2ccccc2)c2ccc(N(C)C)cc2)cc1
Output: 79.1

Task: // next record COC(=O)/C=C/c1cc(OC(C)=O)c2c(c1)[C@@H](C(=O)OC)[C@H](c1ccc(OC(C)=O)c(OC(C)=O)c1)O2
Output: 20.7

Task: // next record O=C(N=Nc1c(Cl)c(O)c2ccccc2c1O)C(=O)Nc1cccc(C(F)(F)F)c1
Output: 71.5

Task: // next record COc1cc(C(=O)/C=C/c2cn(-c3ccccc3)nc2-c2cccc(Nc3ccnc4cc(Cl)ccc34)c2)cc(OC)c1OC
Output: 100

Task: // next record COc1ccc2[nH]c(O)c(/C=c3/ccc4c(c3)N=C(c3ccc(C(F)(F)F)cc3)N=4)c2c1
Output: 82.4

Task: // next record O=C1C=CC(=O)N1c1cccc(N2C(=O)C=CC2=O)c1
Output: 98.7

Task: // next record O=C(CSc1ccc(Cl)cc1)Nc1ccc(-c2nc3ccccc3s2)c(Cl)c1
Output: 20.9

Task: // next record Nc1c(C(=O)Nc2cccc(Cl)c2)sc2ncc(Br)cc12
Output: 79.5
